Recorded below: MIC, system Escherichia coli (14H114).
The response must be a number in µg/mL with no trailing unit.

Solved cases below.
Fill blank: measured MIC of the molecule Cc1nnc(SCC2=C(C(=O)O)N3C(=O)[C@@H](NC(=O)Cn4cnnn4)[C@H]3SC2)s1 [CEZ, reference compound] is ____. 6.25

Fill blank: measured MIC of the molecule Cn1nnnc1SCC1=C(C(=O)O)N2C(=O)C(NC(=O)[C@H](NC(=O)c3cnc4c(c3O)C(=O)CCC4)c3ccccc3)C2SC1 (single isomer, unassigned) [Synthesis Example 1] is ____. 6.25

Next:
Fill blank: measured MIC of the molecule Cn1nnnc1SCC1=C(C(=O)O)N2C(=O)C(NC(=O)[C@H](NC(=O)c3cnc4c(c3O)C(=O)CCC4)c3ccc(O)cc3)C2SC1 (single isomer, unassigned) [Synthesis Example 2] is ____. 6.25
